FYI, the data here is from patent US7074789B2.

Assign pIC50 to each entry below.
tested_system: c-Met (Homo sapiens)
Construct: Kinases are expressed as either kinase domains or full length constructs; made in house
Sequence (P08581 25-1390): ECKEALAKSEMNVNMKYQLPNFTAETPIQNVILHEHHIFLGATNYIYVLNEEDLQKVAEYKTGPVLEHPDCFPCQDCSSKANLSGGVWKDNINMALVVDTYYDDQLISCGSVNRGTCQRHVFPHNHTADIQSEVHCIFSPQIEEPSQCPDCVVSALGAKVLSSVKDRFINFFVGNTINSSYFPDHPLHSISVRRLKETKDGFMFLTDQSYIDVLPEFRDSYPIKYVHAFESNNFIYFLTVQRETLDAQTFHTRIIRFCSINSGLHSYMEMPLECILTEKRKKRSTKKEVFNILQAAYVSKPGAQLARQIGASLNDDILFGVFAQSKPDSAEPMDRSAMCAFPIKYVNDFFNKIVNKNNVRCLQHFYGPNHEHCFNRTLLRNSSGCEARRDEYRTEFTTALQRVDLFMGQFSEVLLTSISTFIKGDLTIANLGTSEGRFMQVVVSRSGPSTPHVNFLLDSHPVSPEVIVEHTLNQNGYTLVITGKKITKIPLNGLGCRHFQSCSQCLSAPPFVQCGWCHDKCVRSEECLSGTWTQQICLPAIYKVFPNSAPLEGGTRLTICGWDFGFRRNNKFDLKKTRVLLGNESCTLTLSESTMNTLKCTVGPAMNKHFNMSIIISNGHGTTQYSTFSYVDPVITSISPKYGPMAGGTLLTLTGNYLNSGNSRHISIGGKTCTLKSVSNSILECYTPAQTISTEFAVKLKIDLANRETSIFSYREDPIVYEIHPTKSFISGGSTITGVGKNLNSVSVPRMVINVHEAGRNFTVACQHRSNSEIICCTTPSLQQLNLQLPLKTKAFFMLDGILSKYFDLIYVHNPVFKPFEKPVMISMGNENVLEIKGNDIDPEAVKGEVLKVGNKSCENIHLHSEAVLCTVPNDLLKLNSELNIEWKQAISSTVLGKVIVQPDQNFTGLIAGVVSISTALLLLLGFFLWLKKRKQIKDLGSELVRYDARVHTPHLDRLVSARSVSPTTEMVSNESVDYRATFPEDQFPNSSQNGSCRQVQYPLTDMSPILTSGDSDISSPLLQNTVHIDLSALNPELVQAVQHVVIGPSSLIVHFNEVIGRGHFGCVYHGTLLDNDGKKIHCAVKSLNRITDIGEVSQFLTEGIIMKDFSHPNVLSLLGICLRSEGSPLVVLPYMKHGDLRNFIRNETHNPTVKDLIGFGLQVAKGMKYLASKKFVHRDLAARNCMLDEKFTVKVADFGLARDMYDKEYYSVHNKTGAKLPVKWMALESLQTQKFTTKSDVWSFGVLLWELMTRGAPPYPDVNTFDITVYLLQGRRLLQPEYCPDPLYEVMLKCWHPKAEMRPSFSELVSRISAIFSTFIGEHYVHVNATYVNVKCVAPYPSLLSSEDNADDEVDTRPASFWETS
assay_remarks: Kinase inhibition assay (33P transfer), c-Met
Assay type: biochemical
test_parameters: Table 2, kinase inhibition class; read-out: Met-1
pIC50: −log10 of the molar value.

INPUT: # query: pIC50 | item `CC(C)(C)c1cc(Nc2ncnc(Nc3cccc(Cl)c3)n2)[nH]n1` | system: c-Met (Homo sapiens)
OUTPUT: 5.16 to 5.93

INPUT: # query: pIC50 | item `COc1cc(Nc2ncnc(N(c3ccc(Cl)cc3)c3nc4ccccc4[nH]3)n2)cc(OC)c1OC` | system: c-Met (Homo sapiens)
OUTPUT: 5.32 to 6.10

INPUT: # query: pIC50 | item `COc1cc(Nc2ncnc(-n3c(NCc4cccc([N+](=O)[O-])c4)nc4ccccc43)n2)cc(OC)c1OC` | system: c-Met (Homo sapiens)
OUTPUT: 5.07 to 5.18

INPUT: # query: pIC50 | item `COc1cc(NC(=O)Nc2ncnc(Nc3cc(OC)c(OC)c(OC)c3)n2)cc(OC)c1` | system: c-Met (Homo sapiens)
OUTPUT: < 5.01

INPUT: # query: pIC50 | item `Clc1cc(Cl)cc(Nc2ncnc(-n3cccc3)n2)c1` | system: c-Met (Homo sapiens)
OUTPUT: < 4.83

INPUT: # query: pIC50 | item `COc1cc(Nc2ncnc(N3CCc4ccccc4C3)n2)cc(OC)c1OC` | system: c-Met (Homo sapiens)
OUTPUT: < 4.94

INPUT: # query: pIC50 | item `COc1cccc(Nc2ncnc(-c3cccs3)n2)n1` | system: c-Met (Homo sapiens)
OUTPUT: < 4.80

INPUT: # query: pIC50 | item `c1ccc(COc2cccc(Nc3ncnc(-c4cccs4)n3)c2)cc1` | system: c-Met (Homo sapiens)
OUTPUT: < 4.90

INPUT: # query: pIC50 | item `c1ccc(Cn2ncc3cc(Nc4ncnc(Nc5ccc(N6CCOCC6)cc5)n4)ccc32)cc1` | system: c-Met (Homo sapiens)
OUTPUT: 5.30 to 6.08

INPUT: # query: pIC50 | item `NC(=O)[C@H](CO)Nc1ncnc(-n2c(=O)[nH]c3ccccc32)n1` | system: c-Met (Homo sapiens)
OUTPUT: < 4.85

INPUT: # query: pIC50 | item `COC(=O)Cc1cccc(Nc2ncnc(Nc3cccc(Br)c3)n2)c1` | system: c-Met (Homo sapiens)
OUTPUT: 5.07 to 5.24

INPUT: # query: pIC50 | item `COc1cc(Nc2ncnc(-n3c(Nc4ccccc4C)nc4ccccc43)n2)cc(OC)c1OC` | system: c-Met (Homo sapiens)
OUTPUT: 5.03 to 5.14

INPUT: # query: pIC50 | item `COc1cc(Nc2ncnc(Nc3cccc4cccnc34)n2)cc(OC)c1OC` | system: c-Met (Homo sapiens)
OUTPUT: < 4.95

INPUT: # query: pIC50 | item `COc1cc(Nc2ncnc(Nc3ccc4nn(Cc5ccccc5)cc4c3)n2)cc(OC)c1OC` | system: c-Met (Homo sapiens)
OUTPUT: 5.14 to 5.30

INPUT: # query: pIC50 | item `COc1ccc(Nc2ncnc(Nc3ccccc3C)n2)cc1OC` | system: c-Met (Homo sapiens)
OUTPUT: < 4.87

INPUT: # query: pIC50 | item `COc1cc(Nc2ncnc(N(C)c3ccc(Cl)cc3)n2)cc(OC)c1OC` | system: c-Met (Homo sapiens)
OUTPUT: > 6.00

INPUT: # query: pIC50 | item `NS(=O)(=O)c1ccc(Nc2ncnc(-n3c(=O)[nH]c4ccccc43)n2)cc1` | system: c-Met (Homo sapiens)
OUTPUT: < 4.93

INPUT: # query: pIC50 | item `COc1cc(Nc2ncnc(Nc3ccc(NC(C)=O)c(C(F)(F)F)c3)n2)cc(OC)c1OC` | system: c-Met (Homo sapiens)
OUTPUT: < 5.03
